pIC50 reference
Tested on: senescent HEPG2 cells
protocol: Senescence assay: viability of senescent HEPG2 cells
Type: cell-based
measurementConditions: Homo sapiens, 24-72 hours incubation, viability by CellTiter-Glo or XTT, read-out: Absolute IC50 average HEPG2_SEN IC50
Method: Cells were maintained in DMEM media (high glucose, 4 mM L-glutamine, no sodium pyruvate) supplemented with 10% fetal bovine serum in a humidified incubator at 37° C. with 5% carbon dioxide. […] Cells were incubated with the compounds for 24-72 hours, at which point viability was quantified using CellTiter-Glo (Promega) or XTT (R&D Systems). The viability for treated cells was determined relative to untreated control cells. […]
pIC50: −log10 of the molar value.
property: pIC50

# compound, systemName, property, result
records = [
    ("C#CC(F)(F)[C@]1(O)CC[C@H]2[C@@H]3CCC4=C/C(=N/NC(=O)C5CC5)CCC4=C3[C@H](c3ccc(C4CC4)cc3)C[C@@]21C", "senescent HEPG2 cells", "pIC50", "8.00 to 10.00"),
    ("C#CC(F)(F)[C@]1(O)CC[C@H]2[C@@H]3CCC4=CC(=NOCCO)CCC4=C3[C@@H](c3ccc(C4CC4)cc3)C[C@@]21C", "senescent HEPG2 cells", "pIC50", "8.00 to 10.00"),
    ("C#CC(F)(F)[C@]1(O)CC[C@H]2[C@@H]3CCC4=C/C(=N/NC(=O)O[C@@H]5O[C@@H](C)[C@@H](OC(C)=O)[C@@H](OC(C)=O)[C@@H]5OC(C)=O)CCC4=C3[C@H](c3ccc(C4CC4)cc3)C[C@@]21C", "senescent HEPG2 cells", "pIC50", "8.00 to 10.00"),
    ("C#CC(F)(F)[C@]1(O)CC[C@H]2[C@@H]3CCC4=C/C(=N/NC(=O)NCCO)CCC4=C3[C@H](c3ccc(C4CC4)cc3)C[C@@]21C", "senescent HEPG2 cells", "pIC50", "8.00 to 10.00"),
    ("C#CC(F)(F)[C@]1(O)CC[C@H]2[C@@H]3CCC4=C/C(=N/OCCOCCO)CCC4=C3[C@@H](c3ccc(C4CC4)cc3)C[C@@]21C", "senescent HEPG2 cells", "pIC50", "8.00 to 10.00"),
    ("C#CC(F)(F)[C@]1(O)CC[C@H]2[C@@H]3CCC4=C/C(=N\\OCCOC)CCC4=C3[C@@H](c3ccc(C4CC4)cc3)C[C@@]21C", "senescent HEPG2 cells", "pIC50", "7.00 to 8.00"),
    ("C#CC(F)(F)[C@]1(O)CC[C@H]2[C@@H]3CCC4=C/C(=N/OCCOCCOCCOC)CCC4=C3[C@@H](c3ccc(C4CC4)cc3)C[C@@]21C", "senescent HEPG2 cells", "pIC50", "7.00 to 8.00"),
    ("C#CC(F)(F)[C@]1(O)CC[C@H]2[C@@H]3CCC4=C/C(=N/NC(=O)CN)CCC4=C3[C@H](c3ccc(C4CC4)cc3)C[C@@]21C", "senescent HEPG2 cells", "pIC50", "8.00 to 10.00"),
    ("C#CC[C@]1(O)CC[C@H]2[C@@H]3CCC4=CC(=O)CCC4=C3C(c3ccc(C4CC4)cc3)C[C@@]21C (some centres unmarked)", "senescent HEPG2 cells", "pIC50", "≤ 6.00"),
    ("C#CC(F)(F)[C@]1(O)CC[C@H]2[C@@H]3CCC4=CC(=NOCC(=O)O)CCC4=C3[C@@H](c3ccc(C4CC4)cc3)C[C@@]21C", "senescent HEPG2 cells", "pIC50", "≤ 6.00"),
    ("C#CC(F)(F)[C@]1(O)CC[C@H]2[C@@H]3CCC4=C/C(=N/O[C@H]5C[C@H](O)[C@H](O)[C@H](C)O5)CCC4=C3[C@H](c3ccc(C4CC4)cc3)C[C@@]21C", "senescent HEPG2 cells", "pIC50", "7.00 to 8.00"),
]
